Data origin: the supplement of paper PMC10567573

B1: ADD1 (parent)
chain: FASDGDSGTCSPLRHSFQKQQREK

# Variants of: B1
# Assay Details: protein stability index of a GFP-peptide fusion (GPS, HEK-293T) (PSI 1-6); higher = more stable;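 further: lentivirally expressed fusions sorted by FACS into six bins by GFP to DsRed ratio, PSI derived from sequencing read proportions per bin multiplied by bin number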
# Experimental Conditions: c terminus: a fixed tail appended
Hi there, I'd appreciate the recorded protein stability index for every entry that follows.
Answers are plain numbers.

Answered cases to consult:
Variant Name | Val
C10D | 4.68
F1Q | 4.57
D4A | 2.14
K24S | 3.4
F1P | 5.76
R14H | 3.98

Could I get protein stability index for every one of these entries?
1. E23P
2. L13D
3. L13M
4. G5L
5. G5T
6. D6K
7. D6L

3.29
4.72
4.02
3.83
4.37
2.8
2.6

Could I get protein stability index for every one of these entries?
1. H15W
2. C10E
3. Q18A
4. D4E
5. S11K
6. K19E
7. F17K
8. C10T

[2.39, 4.66, 2.75, 4.37, 4.45, 3.71, 3.95, 4.44]

Give recorded protein stability index. R14C
3.52
